tested on: Escherichia coli D21f2tolC; experiment: microbe, parasite or virus in culture; conditions: 16 h, read-out: MIC E. coli D21f2tolC, Mueller-Hinton II agar, 16 h at 37° C.
Threshold 2 µg/mL: MIC strictly smaller gives met, otherwise not met.

Please review the entries below; each comes with its answer.
Data request: Please state whether MIC is below 2 µg/mL for O=C(/C=C/c1ccc(Oc2ccc(F)cc2)cc1C(F)(F)F)c1c(O)cc(O)cc1O [Example 32]
Data returned: not met

Data request: Follow-up entry: CCC1=C(O)C(CC)(CC)C(=O)C(C(=O)C2CC2c2ccc(Cl)cc2C(F)(F)F)=C1O (centres unmarked) [Example 84]
Data returned: met

Data request: Follow-up entry: Cc1cc(Cl)ccc1C1CC1C(=O)c1c(O)cc(O)c(Cl)c1O (centres unmarked) [Example 56]
Data returned: not met

Data request: Follow-up entry: CCC1=C(O)C(CC)(CC)C(=O)C(C(=O)C2CC2c2ccc(Cl)cc2)=C1O (centres unmarked) [Example 81]
Data returned: not met

Data request: Follow-up entry: Cc1cc(Oc2ccc(Cl)cc2)ccc1CCC(=O)c1c(O)cc(O)cc1O [Example 24]
Data returned: met

***
Data request: Please state whether MIC is below 2 µg/mL for Cc1cc(Oc2ccccc2)ccc1CCC(=O)c1c(O)cc(O)c(Cl)c1O [Example 41]
Data returned: not met

Data request: Follow-up entry: O=C(c1c(O)cc(O)cc1O)C1CC1c1ccc(Oc2ccc(Cl)cc2)cc1 (centres unmarked) [Example 13]
Data returned: not met

Data request: Follow-up entry: Cc1cc(Oc2ccc(F)cc2)ccc1C1CC1C(=O)c1c(O)cc(O)cc1O (centres unmarked) [Example 36]
Data returned: met

Data request: Follow-up entry: CCCC1=C(O)C(CCC)(CCC)C(=O)C(C(=O)C2CC2c2ccc(Oc3ccc(F)cc3)cc2)=C1O (centres unmarked) [Example 66]
Data returned: met

Data request: Follow-up entry: CCCC1(CCC)C(=O)C(C(=O)C2CC2c2ccc(Oc3ccc(F)cc3)cc2)=C(O)C=C1O (centres unmarked) [Example 65]
Data returned: not met

Data request: Follow-up entry: CCOc1ccc(C2CC2C(=O)c2c(O)cc(O)cc2O)cc1 (centres unmarked) [Example 21]
Data returned: not met

Data request: Follow-up entry: O=C(c1c(O)cc(O)c(Cl)c1O)C1CC1c1ccc(Cl)cc1 (centres unmarked) [Example 55]
Data returned: not met

Data request: Follow-up entry: CCCC1=C(O)C(CCC)(CCC)C(=O)C(C(=O)CCc2ccc(Oc3ccc(F)cc3)cc2)=C1O [Example 64]
Data returned: met

Data request: Follow-up entry: Cc1cc(Oc2ccc(F)cc2)ccc1CCC(=O)c1c(O)cc(O)c(Cl)c1O [Example 50]
Data returned: not met

Data request: Follow-up entry: O=C(c1c(O)cc(O)cc1O)C1CC1c1ccc(C(F)(F)F)cc1C(F)(F)F (centres unmarked) [Example 57]
Data returned: not met

Data request: Follow-up entry: CCC1=C(O)C(CC)(CC)C(=O)C(C(=O)CCc2ccc(Oc3ccc(F)cc3)cc2)=C1O [Example 61]
Data returned: met

Data request: Follow-up entry: CCCC1=C(O)C(CCC)(CCC)C(=O)C(C(=O)C2CC2c2ccc(Oc3ccc(F)cc3)cc2C)=C1O (centres unmarked) [Example 71]
Data returned: not met
